Data provenance is patent US12583884B2.

assayed_system: PXR (non-steroid nuclear receptor) (Homo sapiens)
experiment: in vitro
value_type: inhibition at 10 µM (%)
One number for each entry, in %.

## Task Reported inhibition at 10 µM for CC(=O)[C@@]1(C)CC[C@H]2[C@@H]3CC=C4C[C@@H](OCc5ccccc5)CC[C@]4(C)[C@H]3CC[C@@]21C [3Bn17MeP] : what is it?
## Result -8

====

experiment: 7-day oral safety study in rats
Format: in vivo, Sprague-Dawley rats
test_parameters: both sexes, Sprague-Dawley, rat, in vivo, oral, 20 mg/kg; repeated treatment at a single dose, 7 days per os; read-out: Maximum tolerated dose (MTD)
value_type: MTD at 7 days

## Task Reported MTD at 7 days for CC(=O)[C@@]1(C)CC[C@H]2[C@@H]3CC=C4C[C@@H](OCc5ccccc5)CC[C@]4(C)[C@H]3CC[C@@]21C [3Bn17MeP] : what is it?
## Result > 20 mg/kg/day

====

experiment: in vivo
test_parameters: both, Sprague-Dawley, rat, 20 mg/kg
value_type: concentration at 24 h (ng/mL)
Answers are plain numbers, in ng/mL.

## Task Reported concentration at 24 h for CC(=O)[C@@]1(C)CC[C@H]2[C@@H]3CC=C4C[C@@H](OCc5ccccc5)CC[C@]4(C)[C@H]3CC[C@@]21C [3Bn17MeP] : what is it?
## Result 974

====

assayed_system: PXR (non-steroid nuclear receptor) (Homo sapiens, UniProt O75469)
Sequence (O75469 whole entry): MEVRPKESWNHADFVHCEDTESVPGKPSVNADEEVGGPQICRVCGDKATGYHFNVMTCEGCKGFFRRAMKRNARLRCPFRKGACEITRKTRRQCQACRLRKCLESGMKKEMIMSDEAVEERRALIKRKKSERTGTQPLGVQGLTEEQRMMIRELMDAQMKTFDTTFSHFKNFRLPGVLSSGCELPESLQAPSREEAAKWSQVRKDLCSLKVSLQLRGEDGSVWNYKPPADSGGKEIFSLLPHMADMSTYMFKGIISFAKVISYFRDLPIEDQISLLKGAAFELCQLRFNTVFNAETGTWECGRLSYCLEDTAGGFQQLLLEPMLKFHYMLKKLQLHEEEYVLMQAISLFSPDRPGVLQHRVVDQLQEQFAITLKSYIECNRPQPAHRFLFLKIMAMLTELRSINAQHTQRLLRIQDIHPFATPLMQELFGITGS
experiment: Binding: PXR
test_parameters: PXR receptor binding assay (ligand displacement)
value_type: inhibition at 10 µM (%)
Numbers only, in %.

## Task Reported inhibition at 10 µM for CC(=O)[C@H]1CC[C@H]2[C@@H]3CC=C4C[C@@H](O)CC[C@]4(C)[C@H]3CC[C@]12C [pregnenolone, reference compound] : what is it?
## Result 15
